experiment: Pharmacokinetic profiles in rats after intravenous and oral administration; type: in vivo; settings: rat, plasma, iv dosing 2 mg/kg, read-out: Vss
Entries annotated with measured Vd
Reply with just the number (in L/kg).

COc1ncc(-c2ccc3ncc(C#CC(C)O)n3n2)cc1NS(=O)(=O)c1ccc(F)cc1 (stereo not shown) ... 0.16
COc1ncc(-c2ccc3ncc(C#CCO)n3n2)cc1NS(=O)(=O)c1ccc(F)cc1 ... 0.22
COc1ncc(-c2ccc3ncc(C#N)n3c2)cc1NS(=O)(=O)c1ccc(F)cc1F ... 0.55

# ---- query compound ----
Task item: May I ask what Vd has been recorded for "COc1ncc(-c2ccc3ncc(C#N)n3n2)cc1NS(=O)(=O)c1ccc(F)cc1F" ?
Reply: 0.55

###

assay: Compound stability in rat liver microsomes; type: in vitro ADME; settings: pH 7.4; rat liver microsomes; in vivo CLint extrapolated
Quantity: CLint scaled at 5 μM (mL/min/kg)
Express it in mL/min/kg; write the number only.

Here is how some molecules turned out for CLint scaled at 5 μM.
CC#Cc1cnc2ccc(-c3cnc(OC)c(NS(=O)(=O)c4ccc(F)cc4F)c3)cn12 [Ex. 18] ... 56.6
COc1ncc(-c2ccc3ncc(C#CCO)n3c2)cc1NS(=O)(=O)c1ccc(F)cc1F [Ex. 15] ... 20.6
COc1ncc(-c2ccc3ncc(C#CC(C)(C)O)n3c2)cc1NS(=O)(=O)c1ccc(F)cc1F [Ex. 17] ... 8.87
COc1ncc(-c2ccc3ncc(C#CC(C)(C)O)n3n2)cc1NS(=O)(=O)c1ccc(F)cc1 [Ex. 4] ... 62.1
COc1ncc(-c2ccc3ncc(C#CC(C)O)n3c2)cc1NS(=O)(=O)c1ccc(F)cc1F (stereo not shown) [Ex. 16] ... 46.3

Task item: Dear colleague, I am looking for the recorded CLint scaled at 5 μM of the following molecule: CC#Cc1cnc2ccc(-c3cnc(OC)c(NS(=O)(=O)c4ccc(F)cc4)c3)nn12 [Ex. 5]
Reply: 69.5

Task item: Please report the recorded CLint scaled at 5 μM for C#Cc1cnc2ccc(-c3cnc(OC)c(NS(=O)(=O)c4ccc(F)cc4)c3)nn12 [Ex. 1] .
Reply: 25.5

###

This section presents compounds with their documented half-life values.
assay: Pharmacokinetic profiles in rats after intravenous and oral administration; format: in vivo; details: rat, plasma, iv dosing 2 mg/kg
Give a bare numeral; the unit h is implied.

COc1ncc(-c2ccc3ncc(C#N)n3n2)cc1NS(=O)(=O)c1ccc(F)cc1F ... 3.06
C#Cc1cnc2ccc(-c3cnc(Cl)c(NS(=O)(=O)c4ccc(F)cc4)c3)nn12 ... 3.19
C#Cc1cnc2ccc(-c3cnc(OC)c(NS(=O)(=O)c4ccc(F)cc4F)c3)nn12 ... 3.02
COc1ncc(-c2ccc3ncc(C#CCO)n3n2)cc1NS(=O)(=O)c1ccc(F)cc1 ... 3.42
COc1ncc(-c2ccc3ncc(C#CCO)n3c2)cc1NS(=O)(=O)c1ccc(F)cc1F ... 3.14

Task item: Name the recorded half-life for "COc1ncc(-c2ccc3ncc(C#N)n3c2)cc1NS(=O)(=O)c1ccc(F)cc1F" .
Reply: 2.58

Task item: Give the measured half-life of COc1ncc(-c2ccc3ncc(C#CC(C)O)n3n2)cc1NS(=O)(=O)c1ccc(F)cc1F (centres unmarked) .
Reply: 4.27

Task item: // query half-life value for entry COc1ncc(-c2ccc3ncc(C#CC(C)O)n3n2)cc1NS(=O)(=O)c1ccc(F)cc1 (centres unmarked)
Reply: 3.11

Origin of values: patent US9926324B2
